Species: Rattus norvegicus
Assay: DrugMatrix - Regimen: Daily Repeat
Type: toxicity, organism-based, Sprague-Dawley
Parameters: regimen Daily Repeat, gender Male, age 6-8 weeks
Details: in vivo, po, 0 mg/kg, 120 h, tissue Blood, route oral GAVAGE, dose level Control, time 5 day, […]
Note to self: values exactly at 9% are Condition met. So NEUTROPHIL at or above 9% is Condition met, below is Condition not met.

See these solved cases before continuing.
molecule | group
Cn1cnc([N+](=O)[O-])c1Sc1ncnc2nc[nH]c12 | Condition not met
O=[N+]([O-])c1cc([As](=O)(O)O)ccc1O | Condition met
CN(C)CCCC1(c2ccc(F)cc2)OCc2cc(C#N)ccc21 (stereo unspecified) | Condition not met

--- query ---
*Q* Can COc1ccc2c(c1)c(CC(=O)OCC(=O)O)c(C)n2C(=O)c1ccc(Cl)cc1 be said to have NEUTROPHIL at or above 9%?
*A* Condition met
